SUBJECT_OF_TEST: alpha-2 receptor
TEST_SUMMARY: alpha-2 receptor radioligand binding, rat cerebral cortices, [3H]-rauwolscine
SETUP_CONDITIONS: rat cerebral cortices, [3H]-rauwolscine; read-out: Radioligand binding Ki α2
Counter-ions that a name gives are not always drawn.
Ki values for the compounds below.
Answer format: numeric, nM implied, no suffix.

Examples from the recorded data:
CN1CCc2c(ccc3c2OCO3)C1CN1CCC(c2ccccc2)C1 (stereo not shown) [Example 5, dihydrochloride]	4.3
CN1CCc2cc3c(cc2C1CN1CCC(c2ccccc2)C1)OCO3 (stereo not shown) [Example 6, dimethanesulfonate]	11.4
CN(CCc1ccccc1)CC1c2ccc3c(c2CCN1C)OCO3 (stereo not shown) [Example 4, dihydrochloride]	2.6
CN(CCc1ccccc1)CC1c2cc3c(cc2CCN1C)OCO3 (stereo not shown) [Example 7, dihydrochloride]	6.4
CN1CCc2c(ccc3c2OCO3)[C@@H]1CN1CC[C@@H](c2ccccc2)C1 [Example 9]	2.1

// Ki (alpha-2 receptor) for COc1cccc2c1CCN(C)C2CN1CCC(c2ccccc2)C1 (stereo not shown) [Example 3, dihydrochloride] = 6

// Ki (alpha-2 receptor) for CN1CCc2c(ccc3c2OCO3)[C@H]1CN1CC[C@@H](c2ccccc2)C1 [Example 11, dihydrochloride] = 32.5

###

Tested on: alpha-2 receptor
TEST_SUMMARY: alpha-2 receptor radioligand binding, rat cerebral cortices, [3H]-rauwolscine
SETUP_CONDITIONS: ratio Ki α1/Ki α2
Where a name gives a salt, the structure may show the parent alone.
Alpha-2 selectivity Ki α1/Ki α2 values for the molecules below.
Just the number, please.

CN1CCc2cc3c(cc2C1CN1CCC(c2ccccc2)C1)OCO3 (stereo not drawn) [Example 6, dimethanesulfonate]	6
CN1CCc2c(ccc3c2OCO3)C1CN1CCC(c2ccccc2)C1 (stereo not drawn) [Example 5, dihydrochloride]	42
CN1CCc2c(ccc3c2OCO3)[C@@H]1CN1CC[C@@H](c2ccccc2)C1	80
CN1CCc2c(ccc3c2OCO3)[C@H]1CN1CC[C@@H](c2ccccc2)C1 [Example 11, dihydrochloride]	4.8
CN(CCc1ccccc1)C[C@H]1c2ccc3c(c2CCN1C)OCO3 [Example 12, dihydrochloride]	1040

// Alpha-2 selectivity Ki α1/Ki α2 (alpha-2 receptor) for CN(CCc1ccccc1)CC1c2cc3c(cc2CCN1C)OCO3 (stereo not drawn) [Example 7, dihydrochloride] = 96

// Alpha-2 selectivity Ki α1/Ki α2 (alpha-2 receptor) for CN(CCc1ccccc1)CC1c2ccc3c(c2CCN1C)OCO3 (stereo not drawn) [Example 4, dihydrochloride] = 238

// Alpha-2 selectivity Ki α1/Ki α2 (alpha-2 receptor) for CN(CCc1ccccc1)C[C@@H]1c2ccc3c(c2CCN1C)OCO3 [Example 13, dihydrochloride] = 76

// Alpha-2 selectivity Ki α1/Ki α2 (alpha-2 receptor) for COc1cccc2c1CCN(C)C2CN1CCC(c2ccccc2)C1 (stereo not drawn) [Example 3, dihydrochloride] = 51

###

SUBJECT_OF_TEST: alpha-1 receptor (Rattus norvegicus, UniProt P15823)
Sequence (P15823 whole entry): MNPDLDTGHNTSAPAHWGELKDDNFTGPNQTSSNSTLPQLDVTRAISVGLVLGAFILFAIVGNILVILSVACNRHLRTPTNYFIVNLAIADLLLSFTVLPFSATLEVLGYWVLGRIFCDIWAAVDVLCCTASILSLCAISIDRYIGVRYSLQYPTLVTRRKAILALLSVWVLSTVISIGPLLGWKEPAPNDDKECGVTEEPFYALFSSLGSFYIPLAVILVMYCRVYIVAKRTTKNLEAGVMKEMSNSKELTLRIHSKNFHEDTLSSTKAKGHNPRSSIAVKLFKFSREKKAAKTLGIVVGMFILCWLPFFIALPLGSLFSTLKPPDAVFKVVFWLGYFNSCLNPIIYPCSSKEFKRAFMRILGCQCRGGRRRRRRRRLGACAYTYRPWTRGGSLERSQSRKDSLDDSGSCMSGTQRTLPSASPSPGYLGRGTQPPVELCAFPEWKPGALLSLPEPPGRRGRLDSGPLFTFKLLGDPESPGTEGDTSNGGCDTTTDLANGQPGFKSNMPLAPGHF
TEST_SUMMARY: alpha-1 receptor radioligand binding, rat liver homogenates, [3H]-prazosin
SETUP_CONDITIONS: read-out: Radioligand binding Ki α1; rat liver homogenates, [3H]-prazosin
Where a name gives a salt, the structure may show the parent alone.
OBSERVABLE: Ki (nM)
Answer format: numeric, nM implied, no suffix.

The compound listed as CN1CCc2c(ccc3c2OCO3)[C@@H]1CN1CC[C@H](c2ccccc2)C1 [Example 8, dihydrochloride] shows Ki equal to 446

###

pIC50 values for the compounds below.
System: dopamine uptake
TEST_SUMMARY: inhibition of [3H]-amine uptake by synaptosome preparations, striatum (dopamine)
Type: biochemical, rat (male Sprague-Dawley)
SETUP_CONDITIONS: striatum synaptosomes, [3H]-amine approx. 100 nM, 4 min, 37° C.; read-out: Biogenic amine uptake IC50 DA
Where a name gives a salt, the structure may show the parent alone.
pIC50 is defined as minus the log10 of a concentration measured in mol/L.

Examples from the recorded data:
CN(CCc1ccccc1)CC1c2cc3c(cc2CCN1C)OCO3 (stereo not shown) [Example 7, dihydrochloride]	4.30
CN1CCc2c(ccc3c2OCO3)C1CN1CCC(c2ccccc2)C1 (stereo not shown) [Example 5, dihydrochloride]	4.94
CN1CCc2c(ccc3c2OCO3)[C@H]1CN1CC[C@@H](c2ccccc2)C1 [Example 11, dihydrochloride]	5.31
CNCCC(Oc1ccc(C(F)(F)F)cc1)c1ccccc1 (stereo not shown) [Fluoxetine, reference compound]	4.82
CN1CCc2c(ccc3c2OCO3)[C@@H]1CN1CC[C@@H](c2ccccc2)C1	5.02

The compound listed as CN1CCc2c(ccc3c2OCO3)[C@H]1CN1CC[C@H](c2ccccc2)C1 [Example 10, dihydrochloride] shows pIC50 equal to 4.93

The compound listed as CN(CCc1ccccc1)C[C@@H]1c2ccc3c(c2CCN1C)OCO3 [Example 13, dihydrochloride] shows pIC50 equal to 4.98

The compound listed as COc1ccc2c(c1)CCN(C)C2CN(C)CCc1ccccc1 (stereo not shown) [Example 2, dihydrochloride] shows pIC50 equal to 4.58

The compound listed as COc1cccc2c1CCN(C)C2CN1CCC(c2ccccc2)C1 (stereo not shown) [Example 3, dihydrochloride] shows pIC50 equal to 5.03

###

Alpha-2 selectivity Ki α1/Ki α2 values for the molecules below.
Test system: alpha-2 receptor
TEST_SUMMARY: alpha-2 receptor radioligand binding, rat cerebral cortices, [3H]-rauwolscine
SETUP_CONDITIONS: ratio Ki α1/Ki α2
Counter-ions that a name gives are not always drawn.
Just the number, please.

Examples from the recorded data:
COc1ccc2c(c1)CCN(C)C2CN1CCC(c2ccccc2)C1 (stereo not shown) [Example 1, dihydrochloride]	19
CN1CCc2c(ccc3c2OCO3)[C@H]1CN1CC[C@H](c2ccccc2)C1 [Example 10, dihydrochloride]	18.5
CN1CCc2c(ccc3c2OCO3)[C@@H]1CN1CC[C@H](c2ccccc2)C1 [Example 8, dihydrochloride]	178

Proceed to the following item.
The molecule listed as COc1ccc2c(c1)CCN(C)C2CN(C)CCc1ccccc1 (stereo not shown) [Example 2, dihydrochloride] shows Alpha-2 selectivity Ki α1/Ki α2 equal to 38

###

SUBJECT_OF_TEST: alpha-1 receptor (Rattus norvegicus)
TEST_SUMMARY: alpha-1 receptor radioligand binding, rat liver homogenates, [3H]-prazosin
Where a name gives a salt, the structure may show the parent alone.
OBSERVABLE: Ki (nM)
Answer format: numeric, nM implied, no suffix.

The compound listed as CN1CCc2c(ccc3c2OCO3)C1CN1CCC(c2ccccc2)C1 (stereo not shown) [Example 5, dihydrochloride] shows Ki equal to 180

The compound listed as COc1cccc2c1CCN(C)C2CN1CCC(c2ccccc2)C1 (stereo not shown) [Example 3, dihydrochloride] shows Ki equal to 306

The compound listed as CN1CCc2c(ccc3c2OCO3)[C@H]1CN1CC[C@H](c2ccccc2)C1 [Example 10, dihydrochloride] shows Ki equal to 374

The compound listed as CN1CCc2cc3c(cc2C1CN1CCC(c2ccccc2)C1)OCO3 (stereo not shown) [Example 6, dimethanesulfonate] shows Ki equal to 72

The compound listed as `CN1CCc2c(ccc3c2OCO3)[C@@H]1CN1CC[C@@H](c2ccccc2)C1` shows Ki equal to 168

The compound listed as CN(CCc1ccccc1)C[C@@H]1c2ccc3c(c2CCN1C)OCO3 [Example 13, dihydrochloride] shows Ki equal to 542

The compound listed as CN1CCc2c(ccc3c2OCO3)[C@H]1CN1CC[C@@H](c2ccccc2)C1 [Example 11, dihydrochloride] shows Ki equal to 157

The compound listed as COC(=O)[C@H]1[C@H]2C[C@H]3c4[nH]c5ccccc5c4CCN3C[C@H]2CC[C@@H]1O [Rauw*, Rauwolscine, reference compound] shows Ki equal to 450

The compound listed as COc1ccc2c(c1)CCN(C)C2CN1CCC(c2ccccc2)C1 (stereo not shown) [Example 1, dihydrochloride] shows Ki equal to 120

The compound listed as CN(CCc1ccccc1)CC1c2cc3c(cc2CCN1C)OCO3 (stereo not shown) [Example 7, dihydrochloride] shows Ki equal to 613

The compound listed as COc1ccc2c(c1)CCN(C)C2CN(C)CCc1ccccc1 (stereo not shown) [Example 2, dihydrochloride] shows Ki equal to 175

The compound listed as CN(CCc1ccccc1)C[C@H]1c2ccc3c(c2CCN1C)OCO3 [Example 12, dihydrochloride] shows Ki equal to 1020

The compound listed as CN(CCc1ccccc1)CC1c2ccc3c(c2CCN1C)OCO3 (stereo not shown) [Example 4, dihydrochloride] shows Ki equal to 621

###

SUBJECT_OF_TEST: alpha-2 receptor
TEST_SUMMARY: alpha-2 receptor radioligand binding, rat cerebral cortices, [3H]-rauwolscine
SETUP_CONDITIONS: rat cerebral cortices, [3H]-rauwolscine; read-out: Radioligand binding Ki α2
Where a name gives a salt, the structure may show the parent alone.
OBSERVABLE: pKi
pKi is defined as minus the log10 of a concentration measured in mol/L.

COc1ccc2c(c1)CCN(C)C2CN1CCC(c2ccccc2)C1 (stereo not drawn) [Example 1, dihydrochloride]	8.21
COc1ccc2c(c1)CCN(C)C2CN(C)CCc1ccccc1 (stereo not drawn) [Example 2, dihydrochloride]	8.34
CN1CCc2c(ccc3c2OCO3)[C@H]1CN1CC[C@H](c2ccccc2)C1 [Example 10, dihydrochloride]	7.69

// pKi (alpha-2 receptor) for CN(CCc1ccccc1)C[C@H]1c2ccc3c(c2CCN1C)OCO3 [Example 12, dihydrochloride] = 9.01

// pKi (alpha-2 receptor) for CN(CCc1ccccc1)C[C@@H]1c2ccc3c(c2CCN1C)OCO3 [Example 13, dihydrochloride] = 8.15

// pKi (alpha-2 receptor) for CN1CCc2c(ccc3c2OCO3)[C@@H]1CN1CC[C@H](c2ccccc2)C1 [Example 8, dihydrochloride] = 8.60
